Reported logD by item:
# Assay Explanation: physchem
# Measurement Context: octanol/water phosphate buffer, pH 7.4

[
  {
    "Smiles Notation": "CCCNS(=O)(=O)C[C@H]1C[C@@H](N(C)c2ncnc3[nH]ccc23)C1",
    "logD": 2.1
  },
  {
    "Smiles Notation": "COCCS(=O)(=O)N[C@H]1C[C@@H](N(C)c2ncnc3[nH]ccc23)C1",
    "logD": 1.2
  },
  {
    "Smiles Notation": "CN(c1ncnc2[nH]ccc12)[C@H]1C[C@@H](NS(=O)(=O)CC(F)(F)F)C1",
    "logD": 1.9
  },
  {
    "Smiles Notation": "CN(c1ncnc2[nH]ccc12)[C@H]1C[C@@H](CS(=O)(=O)c2ccccc2)C1",
    "logD": 2.7
  },
  {
    "Smiles Notation": "CCS(=O)(=O)N1CC(CC#N)(n2cc(-c3ncnc4[nH]ccc34)cn2)C1",
    "logD": 1.2
  },
  {
    "Smiles Notation": "CN(c1ncnc2[nH]ccc12)[C@H]1C[C@@H](CS(=O)(=O)NCC2CC2)C1",
    "logD": 2.2
  },
  {
    "Smiles Notation": "CCCCS(=O)(=O)N[C@H]1C[C@@H](N(C)c2ncnc3[nH]ccc23)C1",
    "logD": 2.4
  },
  {
    "Smiles Notation": "CCCS(=O)(=O)N[C@H]1C[C@H](N(C)c2ncnc3[nH]ccc23)C1",
    "logD": 2
  },
  {
    "Smiles Notation": "CN(c1ncnc2[nH]ccc12)[C@H]1C[C@@H](NS(=O)(=O)NCC2CC2)C1",
    "logD": 2.1
  },
  {
    "Smiles Notation": "CN(c1ncnc2[nH]ccc12)[C@H]1C[C@@H](NS(=O)(=O)CC2COC2)C1",
    "logD": 1
  },
  {
    "Smiles Notation": "CN(c1ncnc2[nH]ccc12)[C@H]1C[C@@H](NS(=O)(=O)CC2CC2)C1",
    "logD": 1.8
  },
  {
    "Smiles Notation": "CN(c1ncnc2[nH]ccc12)[C@H]1C[C@@H](NS(=O)(=O)C2CC2)C1",
    "logD": 1.6
  },
  {
    "Smiles Notation": "CCN(C)S(=O)(=O)N[C@H]1C[C@@H](N(C)c2ncnc3[nH]ccc23)C1",
    "logD": 2.1
  },
  {
    "Smiles Notation": "COCCCS(=O)(=O)N[C@H]1C[C@@H](N(C)c2ncnc3[nH]ccc23)C1",
    "logD": 1.5
  },
  {
    "Smiles Notation": "CN(c1ncnc2[nH]ccc12)[C@H]1C[C@@H](NS(=O)(=O)CCC(F)(F)F)C1",
    "logD": 2.4
  }
]

----------
Reported logD by item:
# Assay Explanation: physchem
# Measurement Context: octanol/water phosphate buffer, pH 7.4
Assay Endpoint: logD

[
  {
    "Smiles Notation": "CCNS(=O)(=O)C[C@H]1C[C@@H](N(C)c2ncnc3[nH]ccc23)C1",
    "Endpoint Result": 1.5
  },
  {
    "Smiles Notation": "CN(c1ncnc2[nH]ccc12)[C@H]1C[C@@H](NS(=O)(=O)Cc2ccccc2)C1",
    "Endpoint Result": 2.6
  },
  {
    "Smiles Notation": "CCNS(=O)(=O)N[C@H]1C[C@@H](N(C)c2ncnc3[nH]ccc23)C1",
    "Endpoint Result": 1.6
  },
  {
    "Smiles Notation": "CCS(=O)(=O)C[C@H]1C[C@@H](N(C)c2ncnc3[nH]ccc23)C1",
    "Endpoint Result": 1.2
  },
  {
    "Smiles Notation": "CC(C)CS(=O)(=O)N[C@H]1C[C@@H](N(C)c2ncnc3[nH]ccc23)C1",
    "Endpoint Result": 2.4
  },
  {
    "Smiles Notation": "CCCCN(C)S(=O)(=O)C[C@H]1C[C@@H](N(C)c2ncnc3[nH]ccc23)C1",
    "Endpoint Result": 3
  },
  {
    "Smiles Notation": "CN(CCC#N)S(=O)(=O)N[C@H]1C[C@@H](N(C)c2ncnc3[nH]ccc23)C1",
    "Endpoint Result": 1.3
  },
  {
    "Smiles Notation": "CN(C1CC1)S(=O)(=O)N[C@H]1C[C@@H](N(C)c2ncnc3[nH]ccc23)C1",
    "Endpoint Result": 2.2
  },
  {
    "Smiles Notation": "CN(c1ncnc2[nH]ccc12)[C@H]1C[C@@H](CS(=O)(=O)N2CCCC2)C1",
    "Endpoint Result": 2.1
  }
]

----------
# Assay Explanation: Volume of distribution at steady state in rat at 1 mg/kg, iv or 3 mg/kg, po
# Assay type: ADME, organism-based
# Measurement Context: in vivo, read-out: Vdss
Reported Vd by item:

[
  {
    "Compound": "CCCCS(=O)(=O)C[C@H]1C[C@@H](N(C)c2ncnc3[nH]ccc23)C1",
    "Vd": "0.74 L/kg"
  },
  {
    "Compound": "CCCS(=O)(=O)N[C@H]1C[C@@H](N(C)c2ncnc3[nH]ccc23)C1 [ABROCITINIB]",
    "Vd": "1.04 L/kg"
  },
  {
    "Compound": "CN(c1ncnc2[nH]ccc12)[C@H]1C[C@@H](NS(=O)(=O)CCCC#N)C1",
    "Vd": "1.42 L/kg"
  },
  {
    "Compound": "CN(c1ncnc2[nH]ccc12)[C@H]1C[C@@H](NS(=O)(=O)CC2COC2)C1",
    "Vd": "1.99 L/kg"
  }
]

----------
# Assay Explanation: Tmax in freund's adjuvant-induced Lewis rat arthritis model blood at 15 mg/kg, po qd administered via oral gavage measured on day 7
# Type: ADME, organism-based

[
  {
    "Smiles Notation": "CCCS(=O)(=O)N[C@H]1C[C@@H](N(C)c2ncnc3[nH]ccc23)C1",
    "Tmax (min)": 15
  }
]

----------
Reported Papp A→B by item:
# Assay Explanation: Apparent permeability in RRCK cells from apical to basolateral side
# Format: ADME, cell-based, Canis lupus familiaris, MDCKII-LE
# Measurement Context: dog, MDCK

[
  {
    "Smiles Notation": "CN(c1ncnc2[nH]ccc12)[C@H]1C[C@@H](NS(=O)(=O)CCCC#N)C1",
    "Papp A→B": "4 ×10⁻⁶ cm/s"
  },
  {
    "Smiles Notation": "CCCS(=O)(=O)N[C@H]1C[C@@H](N(C)c2ncnc3[nH]ccc23)C1",
    "Papp A→B": "16 ×10⁻⁶ cm/s"
  },
  {
    "Smiles Notation": "CCCCS(=O)(=O)C[C@H]1C[C@@H](N(C)c2ncnc3[nH]ccc23)C1",
    "Papp A→B": "23 ×10⁻⁶ cm/s"
  },
  {
    "Smiles Notation": "CN(c1ncnc2[nH]ccc12)[C@H]1C[C@@H](NS(=O)(=O)CC2COC2)C1",
    "Papp A→B": "3 ×10⁻⁶ cm/s"
  }
]

----------
# Assay Explanation: Oral bioavailability in rat at 3 mg/kg
# Assay type: ADME, organism-based
# Measurement Context: in vivo

[
  {
    "Smiles Notation": "CN(c1ncnc2[nH]ccc12)[C@H]1C[C@@H](NS(=O)(=O)CCCC#N)C1",
    "bioavailability / %": 61.1
  },
  {
    "Smiles Notation": "CN(c1ncnc2[nH]ccc12)[C@H]1C[C@@H](NS(=O)(=O)CC2COC2)C1",
    "bioavailability / %": 48.3
  },
  {
    "Smiles Notation": "CCCS(=O)(=O)N[C@H]1C[C@@H](N(C)c2ncnc3[nH]ccc23)C1",
    "bioavailability / %": 95.6
  },
  {
    "Smiles Notation": "CCCCS(=O)(=O)C[C@H]1C[C@@H](N(C)c2ncnc3[nH]ccc23)C1",
    "bioavailability / %": 119
  }
]

----------
# Assay Explanation: physchem
# Measurement Context: octanol/water phosphate buffer, pH 7.4
Reported logD by item:

[
  {
    "Smiles Notation": "C[C@@H]1CCN(C(=O)CC#N)C[C@@H]1N(C)c1ncnc2[nH]ccc12",
    "logD": 1.1
  },
  {
    "Smiles Notation": "CN(c1ncnc2[nH]ccc12)[C@H]1C[C@@H](NS(=O)(=O)c2ccc(F)cc2)C1",
    "logD": 2.8
  },
  {
    "Smiles Notation": "CN(c1ncnc2[nH]ccc12)[C@H]1C[C@@H](CS(=O)(=O)C2CC2)C1",
    "logD": 1.6
  },
  {
    "Smiles Notation": "CCCCNS(=O)(=O)C[C@H]1C[C@@H](N(C)c2ncnc3[nH]ccc23)C1",
    "logD": 2.6
  },
  {
    "Smiles Notation": "CN(c1ncnc2[nH]ccc12)[C@H]1C[C@@H](NS(=O)(=O)CCCC(F)(F)F)C1",
    "logD": 2.4
  },
  {
    "Smiles Notation": "CCCS(=O)(=O)C[C@H]1C[C@@H](N(C)c2ncnc3[nH]ccc23)C1",
    "logD": 1.7
  },
  {
    "Smiles Notation": "CN(c1ncnc2[nH]ccc12)[C@H]1C[C@@H](NS(=O)(=O)CC2CCC2)C1",
    "logD": 2.4
  },
  {
    "Smiles Notation": "CN(c1ncnc2[nH]ccc12)[C@H]1C[C@@H](NS(=O)(=O)c2ccccc2)C1",
    "logD": 2.8
  },
  {
    "Smiles Notation": "CN(CC1CC1)S(=O)(=O)C[C@H]1C[C@@H](N(C)c2ncnc3[nH]ccc23)C1",
    "logD": 2.7
  }
]

Numbers sourced from ChEMBL document CHEMBL4020822.
